EXPERIMENTAL DETAILS: M. tuberculosis H37Rv growth inhibitors, H37Rv strain (AID 1626);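 further: bacteria incubated seven days before Alamar blue readout; 0% = bacteria only wells and 100% = bacteria with antibiotic wells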
CONDITIONS: active compounds read high, concentration not given here
Screen size: about 220,000 compounds; about 2,000 (0.91%) were called active. About 2% were inconclusive and are not listed. Only a sample is shown. Potency and affinity values are given separately.
OUTCOME MEASURE: inhibition (%)

                                    compound  outcome_measure  endpoint_value
 0               Cc1ccc(C(=O)/C=C/C(=O)O)cc1       inhibition            1.06
 1  CC(C)C(=O)N1CCN(c2ccc([N+](=O)[O-])cc2Cl)CC1       inhibition            0.58
 2         CCCCCCCCCn1c2c(c(=N)c3c1CCC3)CCC2       inhibition            56.5
 3              c1ccc(-c2nc(C3CCCCC3)no2)cc1       inhibition            3.47
 4  CC(C)OCC(O)CS(=O)Cc1ccccc1 (stereo unspecified)       inhibition           -8.07
 5  CCCCc1ncc(CN2CCCC(C(=O)c3ccc(SC)cc3)C2)[nH]1 (stereo unspecified)       inhibition            1.38
 6        Cc1cc(Nc2ccccc2)n(-c2ccc(Br)cc2)n1       inhibition           -7.48
 7    COc1ccc(CN2CCN(CCCc3ccccc3)CC2)c(OC)c1       inhibition            1.06
 8  CCOC(=O)c1c(NC(=O)COc2cccc3c2CCN(C)C3=O)sc2c1CCC2       inhibition            31.8
 9        CC(=O)N1N=C(c2cccc(Br)c2)OC12CCCC2       inhibition            -8.1
10  Cc1ccc(-c2nnc(N3CCN(C(=O)CN4CCOCC4)CC3)c3ccccc23)cc1       inhibition            0.29
11      COc1ccc2oc(=O)c(-c3nc4ccccc4o3)cc2c1       inhibition            2.35
12  Cc1ccc(C)c(C(=O)Nc2cc(C)nn2-c2nc(C)cc(C)n2)c1       inhibition              22
13          CSc1ccccc1NC(=O)Nc1ccc(F)c(Cl)c1       inhibition            1.15
14        COc1ccc(Nc2cc(C)nc(N3CCOCC3)n2)cc1       inhibition            10.4
15            Cc1cc(Nc2ccccc2)n(-c2ccccc2)n1       inhibition            1.16
16  COc1ccc(CN2CCn3nc(C(=O)NC4CC4)cc3C2=O)cc1       inhibition            0.45
17              O=C(Nc1ccccc1)Nc1csc2ccccc12       inhibition            14.7
18          CC(=O)Nc1cc(C)nn1-c1nc(C)cc(C)n1       inhibition            3.43
19  CC(=O)NCC(=O)N(C)C(C(=O)Nc1ccc2c(c1)OCCO2)c1ccc(C)cc1 (stereo unspecified)       inhibition            2.18
20  CN(Cc1nc(Cc2cccc(C(F)(F)F)c2)no1)C1CC(C)(C)NC(C)(C)C1       inhibition            4.06
21  CCCCn1c(=O)c(CCC(=O)OCC(=O)NC(=O)NCCC(C)C)nc2ccccc21       inhibition           -5.41
22  Cc1ccc(C(=O)/C=C/c2ccc(-c3ccc(C)cc3)o2)cc1       inhibition            88.2
23  O=C(/C=C/c1ccccc1[N+](=O)[O-])c1ccc(F)cc1       inhibition            49.5
24                CN=C(C)c1c(O)c2ccccc2oc1=O       inhibition           -1.28
25  O=C(CC1(O)C(=O)N(CCc2ccccc2)c2ccccc21)c1ccccn1 (stereo unspecified)       inhibition           -2.54
26               CNc1cc(C)nc(-n2nc(C)cc2C)n1       inhibition              13
27  COc1ccc(NC2c3ccccc3C(=O)N2Cc2ccco2)cc1OC (stereo unspecified)       inhibition            8.29
28           O=C(Nc1ccc(F)cc1)Nc1csc2ccccc12       inhibition            57.9
29  CC(C)C(=O)N1CCN(c2nc(-c3ccccc3)c3c(c2C#N)CCCC3)CC1       inhibition            7.25
30  CC(=O)c1ccc(NC(=O)C(C)N2CCN(C/C=C/c3ccccc3)CC2)cc1 (stereo unspecified)       inhibition            53.1
31  Cc1cccc2c1CC(C)(C)N=C2C1=C(O)CC(C)(C)CC1=O       inhibition            2.19
32  CSc1ccc(C(=O)C2CCCN(Cc3ccn[nH]3)C2)cc1 (stereo unspecified)       inhibition            2.84
33            CCCCCn1c2c(c(=N)c3ccccc31)CCC2       inhibition            7.75
34                 O=C(Nc1ccc(Cl)cc1)N1CCCC1       inhibition            1.26
35  O=C(CSc1nnc(NC(=O)c2ccccc2C(=O)O)s1)Nc1ccccc1Cl       inhibition           -9.06
36       COc1ccc(Cn2c(=S)[nH]c3ccsc3c2=O)cc1       inhibition            -1.7
37  CC(C)(C)C(O)(CC#CCN1CCCC1)c1ccccc1 (stereo unspecified)       inhibition           -4.05
38            CCCCCCn1c2c(c(=N)c3c1CCC3)CCC2       inhibition            1.15
39  O=C1c2ccccc2C(Nc2ccc(S(=O)(=O)N3CCCCC3)cc2)N1Cc1ccco1 (stereo unspecified)       inhibition            2.32
40  Cc1nnc(NC(=O)NCN2C(=O)C3C4C=CC(C4)C3C2=O)s1 (stereo unspecified)       inhibition           -8.61

* * *

EXPERIMENTAL DETAILS: M. tuberculosis H37Rv growth inhibitors, H37Rv strain (AID 1626);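 further: bacteria incubated seven days before Alamar blue readout; 0% = bacteria only wells and 100% = bacteria with antibiotic wells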
CONDITIONS: active compounds read high, concentration not given here
About 2,000 (0.91%) of roughly 220,000 compounds were called active. Inconclusive results (about 2%) are left out. Not all results are given here. Entries with a potency or affinity are not part of this list.

COMPOUND	UNIT OF MEASURE	inhibition
COc1cc(C(=O)Nc2ccc3c(c2)OCCO3)ccc1OC(C)C	%	-2.6
Cc1ccc(-n2cc(CNCCCn3cccn3)c(-c3cccc(C)c3)n2)cc1	%	69.4
CCN1CC(CN(C)Cc2cn(-c3ccc(C)cc3)nc2-c2cccc(C)c2)CC1=O (centres undefined)	%	13.5
CC1=C2C3OC(=O)C(C)[C@@H]3CC[C@](C)(O)C2C2C3C4C5(C12)[C@H]1OC(=O)[C@@H](C)C1CC[C@]4(C)O[C@]5(C)[C@@H]3O (some centres undefined)	%	17.2

* * *

EXPERIMENTAL DETAILS: M. tuberculosis H37Rv growth inhibitors, H37Rv strain (AID 1626);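 further: bacteria incubated seven days before Alamar blue readout; 0% = bacteria only wells and 100% = bacteria with antibiotic wells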
CONDITIONS: active compounds read high, concentration not given here
Among all 220,000 compounds or so, about 2,000 (0.91%) were called active. Not shown: some 2% with an inconclusive outcome. A selection follows. Results with a measured potency or affinity are listed apart.
OUTCOME MEASURE: inhibition (%)

                                    compound  endpoint_value
 0  COC(=O)CCn1nc(-c2ccc(Cl)cc2)c2ccccc2c1=O            0.44
 1  O=C(Nc1ccc(F)cc1)c1ccccc1Oc1ccc(C(F)(F)F)cc1[N+](=O)[O-]           -1.92
 2  CC1CN(C(=O)c2cccc(S(=O)(=O)N3CCOCC3)c2)CC(C)O1 (stereo not given)           -11.8
 3  COc1cccc(C2c3c(C)nn(-c4ccc([N+](=O)[O-])cc4)c3N=C3C(=O)Nc4ccccc4N32)c1 (stereo not given)            72.8
 4                CCCCCCCN1C2=NCCN2c2ccccc21           -5.76
 5  CC(C)(C)C(=O)O/N=C(\N)Cc1ccc(-c2csnn2)cc1           -5.08
 6          O=C(Oc1ccc(Cl)c2cccnc12)N1CCCCC1            4.79
 7           c1cnc2nc(-c3ccc4c(c3)OCO4)cn2c1           -8.76
 8  COc1ccc(-c2nn(-c3ccccc3)cc2/C=N/n2cnnc2)cc1OC           -15.3
 9       COc1ccccc1NC(=O)CSCc1nc2ccccc2[nH]1           -0.98
10              COc1ccc(-c2nc3ncccn3c2Br)cc1           -1.31
11  Cc1nn(-c2ccc([N+](=O)[O-])cc2)c2c1C(c1cccc(Br)c1)N1C(=N2)C(=O)Nc2ccccc21 (stereo not given)              73
12  CC(C)C(NS(=O)(=O)c1cccs1)C(=O)NCc1ccccc1Cl (stereo not given)           -0.44
13    COc1ccc(CC(=O)OCC(=O)Nc2cccc(Cl)c2)cc1           -0.87
14        C=CCN=C1SCC(=O)N1S(=O)(=O)c1ccccc1            6.81
15      Cc1ccc(Nc2nc(CSc3n[nH]c(N)n3)cs2)cc1            9.31
16  CCOC(=O)CC(=O)CSc1ncnc2c1nnn2-c1ccc(OC)cc1            0.52
17              Cc1ccc(C(=O)NCc2ccccc2)cc1Br           -8.73
18         CN(C)c1ccc(/C=C/C(=O)c2cccnc2)cc1            3.22
19               COC(=O)Nc1ccc(Oc2ccccc2)cc1           -4.37
20                      CCOc1cccc2sc(Cl)nc12           -8.06
21  Cc1occc1C(=O)N/N=C/C1=C(N2CCOCC2)C(=C\c2ccc(Cl)cc2)/CC1            -4.7
22  COc1cc([C@@H]2c3cc4c(cc3[C@@H](NC3CCN(Cc5ccccc5)CC3)[C@H]3COC(=O)[C@H]23)OCO4)cc(OC)c1O            51.2
23  Cc1ccc(Oc2ccc(C(F)(F)F)cc2[N+](=O)[O-])c([N+](=O)[O-])n1            3.08
24               O=C(O)CSc1ncnc2c1oc1ccccc12           -5.38
25  CCN(C(=O)CN1c2ccccc2CC1C)c1c(N)n(Cc2ccccc2)c(=O)[nH]c1=O (stereo not given)             3.3
26  CCOC(=O)c1cccc(NC(=O)N[C@@H](C)C(=O)OC)c1           -9.35
27  Cc1nn(-c2ccccc2)c2c1C(c1ccc(Cl)cc1)N(c1ccccc1)C(=O)N2 (stereo not given)            63.4
28  CCc1ccc(NC(=O)N(Cc2ccco2)C(C)c2cccs2)cc1 (stereo not given)            0.17
29              CN1CC=C(c2c[nH]c3ccccc23)CC1           -7.46

Data origin, for the record: PubChem BioAssay AID1626
